biological target: β1-adrenergic receptor (B1-AR) (Homo sapiens); construct: expressed in transfected cells; assay: cAMP Gs dynamic HTRF assay, cells expressing β1-adrenergic receptor; assay type: cell-based; settings: CHO-K1 (HitHunter) cells; read-out: Average pEC50 [Receptor subtype: B1-AR; Cell type: CHO-K1 (HitHunter)] (converted)
Sequence (P08588 whole entry): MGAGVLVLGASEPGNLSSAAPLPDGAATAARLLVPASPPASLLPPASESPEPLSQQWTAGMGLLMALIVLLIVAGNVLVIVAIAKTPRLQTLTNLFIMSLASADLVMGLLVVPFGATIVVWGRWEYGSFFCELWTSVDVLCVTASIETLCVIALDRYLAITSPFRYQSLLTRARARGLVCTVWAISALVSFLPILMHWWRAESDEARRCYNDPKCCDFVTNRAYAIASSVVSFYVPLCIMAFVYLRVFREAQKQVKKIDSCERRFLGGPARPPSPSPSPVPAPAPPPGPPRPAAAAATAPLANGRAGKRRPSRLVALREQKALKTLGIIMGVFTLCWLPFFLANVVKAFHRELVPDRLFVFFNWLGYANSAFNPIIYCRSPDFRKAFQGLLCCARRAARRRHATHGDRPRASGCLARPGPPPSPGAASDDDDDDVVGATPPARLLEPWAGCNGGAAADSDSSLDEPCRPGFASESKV
Listing of entries alongside the reported EC50.

smiles	system	EC50
CC(C)(C)NC[C@H](O)c1ccc2ccc(C(F)(F)F)cc2n1	β1-adrenergic receptor (B1-AR) (Homo sapiens)	< 10 nM
CC(C)(C)NC[C@H](O)c1ccc2c(n1)OCCO2	β1-adrenergic receptor (B1-AR) (Homo sapiens)	10 to 100 nM
CC(C)(C)NC[C@H](O)c1ccc2[nH]cnc2c1	β1-adrenergic receptor (B1-AR) (Homo sapiens)	10 to 100 nM
Cc1ccc2cccc([C@@H](O)CNC(C)(C)C)c2n1	β1-adrenergic receptor (B1-AR) (Homo sapiens)	< 10 nM
CC(C)(C)NC[C@H](O)c1ccc2c(n1)NCCO2	β1-adrenergic receptor (B1-AR) (Homo sapiens)	10 to 100 nM
CC(C)(C)NC[C@@H](O)c1c2cn[nH]c2cc[n+]1[O-]	β1-adrenergic receptor (B1-AR) (Homo sapiens)	> 1000 nM
CC(C)(C)NC[C@H](O)c1cccc2c1CCCC(=O)N2	β1-adrenergic receptor (B1-AR) (Homo sapiens)	> 1000 nM
Cc1cc([C@@H](O)CNC(C)(C)C)c2cn[nH]c2c1	β1-adrenergic receptor (B1-AR) (Homo sapiens)	10 to 100 nM
CC(C)(C)NC[C@H](O)c1cccc2c1OCC(=O)N2	β1-adrenergic receptor (B1-AR) (Homo sapiens)	< 10 nM

Ref: patent US20220315534A1
